Here the recorded growth is given for each entry.
- System: MDA-MB-468 breast
- assay_method_text: NCI-60 one-dose screen, 48 h (100 = growth as untreated, 0 = no growth, -100 = all killed)
- condition_set: 10 µM unless noted
Compounds without any hit were thinned out: in the full panel of roughly 83,000, 20% have a hit.
Write the value in % as a bare number.

// solved cases for growth follow
smi	tested_on	growth / %
CCOc1ccc(-c2nonc2NC(=O)c2cccc(C)c2)cc1OCC	MDA-MB-468 breast	2.82
Fc1ccc2c(CN3CCO[C@H](COc4cccc(Cl)c4)C3)c[nH]c2c1	MDA-MB-468 breast	-38.7

Now for a further molecule.
// fetch growth for CO/N=C1\CCc2c(sc(NC(=O)c3cccc(C(F)(F)F)c3)c2C(N)=O)C1 ; system: MDA-MB-468 breast
29.9

* * *

- Tested on: MDA-MB-468 breast
- assay_method_text: NCI-60 one-dose screen, 48 h
- condition_set: 10 µM unless noted
This is part of a sample that, as a whole, favours compounds with a hit. Of some 83,000 tested, about 20% had one in any assay. The source made the active and inactive calls. How the source made its calls: active means growth percent below 10; inactive means the rest.
Outcome (select one): YES (active), NO (inactive)

Tell me the recorded outcome of this test for COCCc1ccc(OCC(O)CNC(C)C)cc1 (centres undefined) .
NO

Tell me the recorded outcome of this test for O=C(CSc1nc2sc3c(c2c(=O)n1-c1ccc(Cl)cc1)CCCC3)NNC(=O)Nc1ccc(Cl)c(C(F)(F)F)c1 .
YES

Tell me the recorded outcome of this test for CC(=O)c1ccc2c(c1)CCN2 .
NO

Tell me the recorded outcome of this test for N=C(N)c1ccc(-c2ccc(-c3ccc(F)cc3)s2)cc1 .
YES

* * *

- Test system: MDA-MB-468 breast
- assay_method_text: NCI-60 one-dose screen, 48 h
- condition_set: 10 µM unless noted
This is part of a sample that, as a whole, favours compounds with a hit. Of some 83,000 tested, about 20% had one in any assay. The source made the active and inactive calls. The calls were made as follows: active = growth percent below 10; inactive = the rest.
Outcome (select one): Y for active, N for inactive

compound	assigned_category
N/C(=C\C(=O)n1nc(-c2ccccc2)cc1N)c1ccccc1	N

Tell me the recorded outcome of this test for COc1cccc(C(=O)Nc2cccc(NC(=O)c3ccccn3)c2)c1 .
N

Tell me the recorded outcome of this test for Nc1c(C(=O)Nc2ccccc2)sc2nc3c(cc12)CCCCC3 .
Y

Tell me the recorded outcome of this test for NS(=O)(=O)c1ccc(Nc2nc(N/N=C/C=C/c3ccccc3)nc(Nc3ccccc3)n2)cc1 .
N

* * *

- System: MDA-MB-468 breast
- assay_method_text: NCI-60 one-dose screen, 48 h (100 = growth as untreated, 0 = no growth, -100 = all killed)
- condition_set: 10 µM unless noted
- Description: Growth inhibition of the MDA-MB-468 human Breast tumor cell line is measured as a screen for anti-cancer activity. Cells are grown in 96 well plates and exposed to the test compound for 48 hours. Compounds are tested at a single concentration, which is 10^-5 M for most compounds. The reported endpoint is percent growth (GI% or GIPRCNT), where numbers from 0 - 100% represent growth inhibition, and numbers from -100% - 0 represent cell death. […]
The panel holds about 83,000 compounds, 20% with a hit somewhere; the sample as a whole holds those more often.
quantity_name: growth (%)
Write the value in % as a bare number.

// solved cases for growth follow
molecule	readout_units	test_result
CC1(C)CC2=C3C=C[C@@H]4[C@@]5(C)CCC(=O)C(C)(C)[C@@H]5CC[C@@]4(C)[C@]3(C)CC[C@@]2(C(=O)O)C[C@H]1O	%	40.3
Cc1nn(-c2ccc(Cl)cc2)c2nc3c(nc12)c(=O)oc1ccccc13	%	125
O=C1Nc2ccc(F)cc2/C1=C\c1nc(-c2ccccc2F)n2ccccc12	%	69.2
NC(=S)N/N=C(/c1ccccc1)c1ccccc1N	%	18.4
Cn1c2c(c3ccc(Cl)cc31)-n1cccc1C2=O	%	104

Supply recorded growth for O=c1c2cc(-c3ccc(F)cc3F)ccc2n(O)c(=O)n1-c1cccc(C(F)(F)F)c1 here.
-0.858

Supply recorded growth for COc1cc(C2NC(=O)c3ccccc3N2)ccc1OCCCCCOc1c(OC)cc(C2=NOC(c3cc(OC)c(OC)c(OC)c3)C2)cc1OC (centres undefined) here.
9.53

Supply recorded growth for COc1nc2c(cc1S(=O)(=O)c1ccccc1)CCc1c-2cnn1-c1ccccc1Cl here.
40.4

Supply recorded growth for CC[C@H](Nc1nc(C)nc(N)c1C#N)c1nc2cccc(NCc3ccc(C(=O)NO)cc3)c2c(=O)n1-c1ccccc1 here.
-37.1

Supply recorded growth for C=C1C(=O)O[C@H]2[C@H]1CC/C(COC(=O)CCCCCCCC(=O)OC/C1=C/CC[C@@]3(C)O[C@H]3[C@H]3OC(=O)C(=C)[C@@H]3CC1)=C\CC[C@@]1(C)O[C@@H]21 here.
-21.6

Supply recorded growth for Fc1ccc(-c2nc(-c3nc4ncccc4[nH]3)cc3c2[nH]c2ccccc23)cc1F here.
49.5

Supply recorded growth for CCCCn1c(-c2ccc(C(=O)O/N=C(\N)c3ccc4ccccc4c3)cc2)nc(-c2ccccc2)c1-c1ccccc1 here.
79.9

Supply recorded growth for Nc1nc(N)c2c(n1)NC(c1ccc(Cl)cc1)C1CCc3ccccc3C1=N2 (centres undefined) here.
18.6

Supply recorded growth for O=c1cc(-c2ccccc2)[nH]n1-c1nc2ccccc2[nH]1 here.
66.2
